Below: molecules with pKi recorded for UniProt P29477 in separate published works.
Sequence (P29477 whole entry): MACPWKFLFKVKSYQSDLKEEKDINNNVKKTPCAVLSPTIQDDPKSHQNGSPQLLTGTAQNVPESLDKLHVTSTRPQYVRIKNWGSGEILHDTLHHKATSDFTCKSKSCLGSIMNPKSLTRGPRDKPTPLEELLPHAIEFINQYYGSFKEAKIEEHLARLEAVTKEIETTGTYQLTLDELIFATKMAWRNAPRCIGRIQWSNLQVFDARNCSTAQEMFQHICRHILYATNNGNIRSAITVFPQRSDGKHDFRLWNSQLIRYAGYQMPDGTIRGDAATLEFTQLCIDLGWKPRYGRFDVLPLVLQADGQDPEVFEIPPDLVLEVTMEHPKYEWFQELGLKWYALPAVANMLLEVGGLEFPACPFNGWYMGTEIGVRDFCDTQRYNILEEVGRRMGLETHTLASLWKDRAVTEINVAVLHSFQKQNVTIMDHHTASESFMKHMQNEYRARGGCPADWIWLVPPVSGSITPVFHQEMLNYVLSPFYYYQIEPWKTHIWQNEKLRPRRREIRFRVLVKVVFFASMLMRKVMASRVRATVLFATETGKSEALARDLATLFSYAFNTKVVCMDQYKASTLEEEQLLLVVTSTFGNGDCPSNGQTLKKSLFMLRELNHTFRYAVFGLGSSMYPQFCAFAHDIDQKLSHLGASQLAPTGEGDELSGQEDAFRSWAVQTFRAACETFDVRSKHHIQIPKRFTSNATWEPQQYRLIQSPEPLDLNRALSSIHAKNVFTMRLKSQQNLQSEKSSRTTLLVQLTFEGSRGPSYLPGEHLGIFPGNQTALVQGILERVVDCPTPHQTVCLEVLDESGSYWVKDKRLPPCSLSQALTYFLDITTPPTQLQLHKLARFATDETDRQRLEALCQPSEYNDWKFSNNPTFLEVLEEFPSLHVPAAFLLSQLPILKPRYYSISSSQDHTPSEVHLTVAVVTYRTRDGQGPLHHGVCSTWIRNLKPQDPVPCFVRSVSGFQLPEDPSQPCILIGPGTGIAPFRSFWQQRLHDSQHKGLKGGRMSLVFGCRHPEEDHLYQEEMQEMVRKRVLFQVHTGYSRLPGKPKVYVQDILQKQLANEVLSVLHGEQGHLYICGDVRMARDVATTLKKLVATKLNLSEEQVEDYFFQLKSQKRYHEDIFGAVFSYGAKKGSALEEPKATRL
Entry type: numeric. Quantity: pKi, the -log10 of concentration in molar units.

QUERY: Value wanted: pKi (UniProt P29477) of entry NC1=NC(C[C@@H]2CNC[C@@H]2OCCNCCc2cccc(F)c2)CCC1 (stereo partly specified)
RESULT: 4.66

QUERY: Which measured pKi belongs to Cc1cccc(CNCCN[C@@H]2CNC[C@@H]2Cc2cc(C)cc(N)n2)c1 (racemic) , tested on UniProt P29477?
RESULT: 5.05

QUERY: Form: Entry = N=C(Nc1cccc(CCc2cccc(NC(=N)c3cccs3)c2)c1)c1cccs1 | System = UniProt P29477 | pKi = ____
RESULT: 3.98

QUERY: GET /values?readout=pKi&system=UniProt P29477&item= CNCc1cc(OCc2ccc3ccc(N)nc3c2)ccc1F
RESULT: 4.94

QUERY: For UniProt P29477, provide pKi of Cc1cc(N)nc(CCc2cc(CN)cc(CCc3ccc4cc[nH]c4n3)c2)c1 please.
RESULT: 5.15

QUERY: What is its pKi for UniProt P29477? Entry: CNCCCc1cc(CCc2cc(C)cc(N)n2)cc(C(F)(F)F)c1
RESULT: 4.47

QUERY: Lab note: need pKi for Cc1cc(N)nc(C[C@H]2CNC[C@H]2NCCNCc2ccc(Cl)c(Cl)c2)c1 (racemic) on UniProt P29477, anyone have it?
RESULT: 5.45

QUERY: Return pKi measured with UniProt P29477 given this molecule: Cc1cc(C[C@H]2CNC[C@H]2NCCNCc2ccc(Cl)cc2)cc(N)n1 (racemic)
RESULT: 3.63

QUERY: Param readout= pKi; system= UniProt P29477; entry= CNCc1cncc(OCc2ccc3ccc(N)nc3c2)c1 ; returns value.
RESULT: 4.87

QUERY: // map Cc1cc(N)nc(CCc2cc(CCCN(C)C)cc(C(F)(F)F)c2)c1 to recorded pKi (system: UniProt P29477)
RESULT: 4.44

QUERY: Which measured pKi belongs to Cc1cc(N)nc(C[C@@H]2CNC[C@@H]2OCCNCC(F)c2cccc(F)c2)c1 (mixture of isomers) , tested on UniProt P29477?
RESULT: 4.59
